Data origin, for the record: patent US20240400584A1

Test system: HTT
Experiment: RT-qPCR splicing assay, HTT AJ/CJ mRNA
Format: cell-based, human
Details: Homo sapiens, 24 h, decrease in canonical junction mRNA, A673 or K562 cells
pIC50: −log10 of the molar value.
# maps each entry to its pIC50

- Compound structure string: "C[C@]12CC[C@](C)(C[C@@H](Oc3ccc4c(n3)OCc3cc(-n5cccn5)ccc3-4)C1)N2"
  Test target: "HTT"
  pIC50: "6.00 to 7.00"
- Compound structure string: "C[C@H]1C[C@H](N(C)c2ccc3c(c2)OCc2cc(-c4cn[nH]c4)ccc2-3)CCN1"
  Test target: "HTT"
  pIC50: "< 5.00"
- Compound structure string: "CN1C[C@@H]2CN(c3ccc4c(n3)OCc3cc(-n5cccn5)ccc3-4)C[C@@H]2C1"
  Test target: "HTT"
  pIC50: "5.00 to 6.00"
